The measurements presented in this section are drawn from patent US6833456B2.

Experiment: Mouse PK assay
Assay type: in vivo, B6 female mice
Settings: po
result_type: Mouse Cmin, po (ng/mL)

Answered examples (2):
substance_smiles=CNC(=O)n1c(C)cc2cc(Nc3ccnc4cc(C(=O)N5CCC[C@H]5CO)sc34)ccc21 test_result=10
substance_smiles=CCCNC(=O)n1c(C)cc2cc(Oc3ccnc4cc(C(=O)N5CC[C@@H](N(C)C)C5)sc34)ccc21 test_result=204

P: C#CCNC(=O)n1c(C)cc2cc(Oc3ccnc4cc(C(=O)N5CCC[C@@H]5CO)sc34)ccc21
Q: CNC(=O)n1c(C)cc2cc(Nc3cccc4cc(C(=O)N5C[C@H](OC)C[C@H]5CO)sc34)ccc21
Which value of Mouse Cmin, po is greater, the one for P or the one for Q ? // output: label of the selected item
P
(P: 1297 ng/mL, Q: 2 ng/mL)

---

Experiment: Mouse PK assay
Format: in vivo, B6 female mice
Settings: female, B6, mouse, plasma, po, 50 mg/kg
Description: The pharmacokinetics (e.g., absorption and elimination) of drugs in mice were analyzed using the following experiment. Test compounds were formulated as a suspension in a 30:70 (PEG 400: acidified H2O) vehicle. […] Test-compound plasma concentrations (μg/mL) were determined by a comparison to standard curve (peak area vs. conc. μg/mL) using known concentrations of test compound extracted from plasma samples in the manner described above. […]
result_type: AUC (µg·h/mL)

substance_smiles=CNC(=O)n1c(C)cc2cc(Oc3ccnc4cc(C(=O)N5CC[C@@H](OC)C5)sc34)ccc21 test_result=5.08
substance_smiles=C#CCNC(=O)n1c(C)cc2cc(Oc3ccnc4cc(C(=O)N5CC[C@@H](O)C5)sc34)ccc21 test_result=28.5
substance_smiles=CNC(=O)n1c(C)cc2cc(Oc3ccnc4cc(C(=O)N5CC[C@@H](O)C5)sc34)ccc21 test_result=1.85
substance_smiles=COC[C@H]1CCCN1C(=O)c1cc2nccc(Oc3ccc4[nH]c(C)c(C(=O)NC5CC5)c4c3)c2s1 test_result=0.383
substance_smiles=Cc1cc2cc(Oc3ccnc4cc(C(=O)N5CC[C@H](O)C5)sc34)ccc2n1C(=O)NCCCO test_result=0.138
substance_smiles=C#CCNC(=O)n1c(C)cc2c(F)c(Oc3ccnc4cc(C(=O)N5CC[C@H](OC)C5)sc34)ccc21 test_result=1.17
substance_smiles=CNC(=O)n1c(C)cc2cc(Oc3ccnc4cc(C(=O)N5CC[C@H](O)C5)sc34)ccc21 test_result=9.53
substance_smiles=CNC(=O)n1c(C)cc2cc(Nc3ccnc4cc(C(=O)N5CCC[C@@H]5CO)sc34)ccc21 test_result=1.02

P: CNC(=O)n1c(C)cc2cc(Oc3ccnc4cc(C(=O)N5CCC[C@H]5COC)sc34)ccc21
Q: CO[C@@H]1C[C@@H](CO)N(C(=O)c2cc3cccc(Nc4ccc5c(c4)cc(C)n5C(=O)NC4CC4)c3s2)C1
R: C#CCNC(=O)n1c(C)cc2c(F)c(Oc3ccnc4cc(C(=O)N5CCC[C@H]5COC)sc34)ccc21
I would appreciate it if you could sort these 3 compounds by AUC, starting from the smallest number. Please express your ranking as an ordered list of the labels.
Q, P, R
(Q: 0.046 µg·h/mL, P: 0.703 µg·h/mL, R: 36.2 µg·h/mL)

---

Assay: Mouse PK assay
Type: in vivo, B6 female mice
Details: female, B6, mouse, plasma, po, 50 mg/kg, p.o., 50 mg/kg, read-out: Mouse Cmax, po ng-h/mL
result_type: Cmax (ng/mL)

Worked examples follow.
substance_smiles=C#CCNC(=O)n1c(C)cc2cc(Oc3ccnc4cc(C(=O)N5CC[C@H](OC)C5)sc34)ccc21 readout_unit=ng/mL test_result=8840
substance_smiles=CCCNC(=O)n1c(C)cc2cc(Oc3ccnc4cc(C(=O)N5CC[C@@H](N(C)C)C5)sc34)ccc21 readout_unit=ng/mL test_result=920
substance_smiles=Cc1cc2cc(Oc3ccnc4cc(C(=O)N5CC[C@H](O)C5)sc34)ccc2n1C(=O)NCCCO readout_unit=ng/mL test_result=56

a: Cc1cc2cc(Nc3ccnc4cc(C(=O)N5CCC[C@H]5CO)sc34)ccc2n1C(=O)NC(C)C
b: Cc1cc2cc(Nc3ccnc4cc(C(=O)N5CC[C@H](O)C5)sc34)ccc2n1C(=O)NC1CC1
c: C#CCNC(=O)n1c(C)cc2cc(Nc3ccnc4cc(C(=O)N5CC[C@@H](O)C5)sc34)ccc21
d: CNC(=O)n1c(C)cc2cc(Oc3ccnc4cc(C(=O)N5CCC[C@@H]5COC)sc34)ccc21
e: COC[C@@H]1CCCN1C(=O)c1cc2nccc(Oc3ccc4c(c3)cc(C)n4C(=O)NC3CC3)c2s1
# ascending order, key=Cmax Hello, could you send the labels back in the order asked? Thank you.
b, c, a, e, d

a: Cc1cc2cc(Nc3ccnc4cc(C(=O)N5CCC[C@@H]5CO)sc34)ccc2n1C(=O)NC1CC1
b: CNC(=O)n1c(C)cc2cc(Oc3ccnc4cc(C(=O)N5CCC[C@H]5COC)sc34)ccc21
Parameter metric = Cmax. Return the lower-valued option from a and b . Lab note: record the label of whichever item you select.
a
(a: 317 ng/mL, b: 575 ng/mL)

---

Biological target: unphosphorylated VEGF-R2Δ50 (FLVK) (Homo sapiens, UniProt P35968, DEL940-989/E990V)
Construct: VEGF-R2Δ50 contains residues 806-939 and 990-1171; made in house; host or cells: baculovirus/insect cell system
Sequence (P35968 with tags, fused parts or gaps DEL940-989/E990V limits assumed): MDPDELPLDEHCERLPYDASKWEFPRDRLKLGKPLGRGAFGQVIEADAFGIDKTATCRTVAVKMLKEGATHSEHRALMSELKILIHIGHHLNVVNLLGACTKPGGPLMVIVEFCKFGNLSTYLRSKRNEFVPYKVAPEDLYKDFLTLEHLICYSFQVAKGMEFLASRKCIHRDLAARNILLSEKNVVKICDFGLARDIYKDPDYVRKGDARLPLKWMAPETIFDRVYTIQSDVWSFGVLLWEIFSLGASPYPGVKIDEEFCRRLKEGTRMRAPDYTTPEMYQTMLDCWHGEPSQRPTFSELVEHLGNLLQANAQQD
Assay: VEGF-R2 coupled spectrophotometric assay, unphosphorylated construct (FLVK)
Type: biochemical
Conditions: percent inhibition at 50 nM
result_type: inhibition at 0.05 µM (%)

Study these solved cases before continuing.
compound="COC[C@@H]1CCCN1C(=O)c1cc2nccc(Nc3ccc4c(c3)cc(C)n4C(=O)NC3CC3)c2s1 [Example 2c]" test_result=97
compound="CNC(=O)n1c(C)cc2cc(Oc3ccnc4cc(C(=O)N5C[C@@H](O)[C@@H](O)C5)sc34)ccc21 [Example 4s]" test_result=98
compound="CO[C@H]1CCN(C(=O)c2cc3nccc(Oc4ccc5c(c4)cc(C)n5C(=O)NCC#N)c3s2)C1 [Example 9f]" test_result=84
compound="CCCNC(=O)n1c(C)cc2cc(Oc3ccnc4cc(C(=O)N5C[C@H](OC)[C@@H](OC)C5)sc34)ccc21 [Example 8e]" test_result=98

1: CO[C@H]1CCN(C(=O)c2cc3nccc(Oc4ccc5c(c4)cc(C)n5C(=O)NCC#CC4CC4)c3s2)C1 [Example 4i]
2: CNC(=O)c1c(C)[nH]c2ccc(Oc3ccnc4cc(C(=O)N5CCC[C@@H]5COC)sc34)cc12 [Example 4x]
Hello, I am sorting some records. Could you say if 1 or 2 has the smaller inhibition at 0.05 µM value? Write down the label of the entry you select.
2

---

Target: unphosphorylated VEGF-R2Δ50 (FLVK) (Homo sapiens, UniProt P35968, DEL940-989/E990V)
Construct: VEGF-R2Δ50 contains residues 806-939 and 990-1171; made in house; host or cells: baculovirus/insect cell system
Experiment: VEGF-R2 coupled spectrophotometric assay, unphosphorylated construct (FLVK)
Format: biochemical
result_type: Ki (nM)

Worked set:
substance_smiles=Cc1cc2cc(Oc3ccnc4cc(C(=O)N5CC[C@H](O)C5)sc34)ccc2n1C(=O)NCCCO test_result=0.327
substance_smiles=CNC(=O)n1c(C)cc2cc(Nc3ccnc4cc(C(=O)N5CCC[C@H]5CO)sc34)ccc21 test_result=1.03
substance_smiles=CNC(=O)n1c(C)cc2cc(Oc3ccnc4cc(C(=O)N5C[C@H](O)[C@@H](O)C5)sc34)ccc21 test_result=0.109
substance_smiles=CNC(=O)n1c(C)cc2cc(Oc3ccnc4cc(C(=O)N5C[C@H](OC)C[C@H]5CO)sc34)ccc21 test_result=1.35
substance_smiles=CNC(=O)n1c(C)cc2c(F)c(Oc3ccnc4cc(C(=O)N5CCC[C@H]5COC)sc34)ccc21 test_result=0.16

1: CCNC(=O)n1c(C)cc2cc(Oc3ccnc4cc(C(=O)N5CC[C@H](OC)C5)sc34)ccc21
2: C#CCNC(=O)n1c(C)c(Cl)c2c(F)c(Oc3ccnc4cc(C(=O)N5CC[C@H](OC)C5)sc34)ccc21
// which entry has the larger Ki value, 1 or 2 ? To answer, give the label that identifies your chosen option.
2

---

Target: unphosphorylated VEGF-R2Δ50 (FLVK) (Homo sapiens, UniProt P35968, DEL940-989/E990V)
Construct: VEGF-R2Δ50 contains residues 806-939 and 990-1171
Test: VEGF-R2 coupled spectrophotometric assay, unphosphorylated construct (FLVK)
pKi: −log10 of the molar value.
result_type: pKi

compound=CNC(=O)n1ccc2cc(Oc3ccnc4cc(-c5nc(C(C)(C)O)cs5)sc34)ccc21 experimental_system="unphosphorylated VEGF-R2Δ50 (FLVK) (Homo sapiens, UniProt P35968, DEL940-989/E990V)" test_result=9.34

1: COC[C@@H]1CCCN1C(=O)c1cc2nccc(Oc3ccc4c(cc(C)n4C(=O)NC4CC4)c3F)c2s1
2: CCOC(=O)c1cc2c(Oc3ccc4c(c3)cc(C)n4C(=O)NC)ncnc2s1 [Example 12c]
3: CNC(=O)c1c(C)[nH]c2ccc(Oc3ccnc4cc(C(=O)N5CCC[C@@H]5COC)sc34)cc12
Please list the entries, largest pKi first. Present the labels in the sequence the task asks for.
1, 2, 3
